Species: Rattus norvegicus
Assay: Displacement of [3H]-BTX-B from neuronal voltage-gated sodium channel in rat cerebral cortex synaptoneurosomes at 40 uM
Format: tissue-based
Provide the recorded Activity for the entries that follow.
Give bare numbers, in %.

Molecule: CCN(CC)CC(=O)Nc1c(C)cc(C2(c3ccccc3)NC(=O)NC2=O)cc1C (stereo not given)
Quantity Unit: %
Observed Measurement: 49

Molecule: CCCCCCCC1(c2cc(C)c(NC(=O)CN(CC)CC)c(C)c2)NC(=O)NC1=O (stereo not given)
Quantity Unit: %
Observed Measurement: 71

// each molecule listed below needs its Activity
1. CCCCCCC1(c2cc(C)c(NC(=O)CN(CC)CC)c(C)c2)NC(=O)NC1=O (stereo not given)
2. CCCCCCCCCC1(c2cc(C)c(NC(=O)CN(CC)CC)c(C)c2)NC(=O)NC1=O (stereo not given)

Completion:
[68, 69]

Prompt: Consider the molecule CCN(CC)CC(=O)Nc1ccc(C(O)(C(N)=O)c2ccccc2)cc1 (stereo not given) and give its measured Activity.
Completion: 4

----------
For each of the compounds below, state its IC50.
Assay: Displacement of [3H]-BTX-B from neuronal voltage-gated sodium channel in rat cerebral cortex synaptoneurosomes
Type: tissue-based
Numbers only, in µM.

Please review the following examples before continuing.
Compound: CCOC(=O)c1ccc(N)cc1 [BENZOCAINE]
Quantity Unit: µM
Observed Measurement: 910
--
Compound: CC1CCCCN1CCCOC(=O)c1ccccc1 (centres undefined) [PIPEROCAINE]
Quantity Unit: µM
Observed Measurement: 12.9

Consider the following items and state reported IC50 for each.
1. CCCC1(c2ccccc2)NC(=O)NC1=O (centres undefined)
2. O=C1C(c2ccccc2)N2CCCCN1C2=O (centres undefined)

Completion:
162
700

----------
Experiment: Lipophilicity, log P of the compound
Assay type: physicochemical
Conditions: octanol/water
Counter-ions that a name gives are not always drawn.
Endpoint Label: logP

The following molecules have reported results that may help.
Molecule: CCCCOc1cc(C(=O)NCCN(CC)CC)c2ccccc2n1
Endpoint Label: logP
Observed Measurement: 3.77

Molecule: O=C1C(c2ccccc2)N2CCCCN1C2=O (stereo unspecified)
Endpoint Label: logP
Observed Measurement: 2.01

Molecule: CCN(CC)CCOC(=O)c1ccc(N)cc1
Endpoint Label: logP
Observed Measurement: 2.53

Kindly give each listed record's logP.
1. CCCCCCCCC1(c2ccccc2)NC(=O)NC1=O (stereo unspecified)
2. CCCCNc1ccc(C(=O)OCCN(C)C)cc1
3. CCCNC(C)C(=O)Nc1ccccc1C (stereo unspecified)
4. CC1CCCCN1CCCOC(=O)c1ccccc1 (stereo unspecified)
5. CCOc1ccc(C(=O)OCCN(CC)CC)cc1
6. CCCOc1cc(N)ccc1C(=O)OCCN(CC)CC [PROPOXYCAINE HYDROCHLORIDE]

Completion:
4.96
3.27
2.18
3.01
2.74
2.42

----------
Assay: Lipophilicity, log P of the compound
Assay type: physicochemical
Conditions: octanol/water
For each of the molecules below, state its logP.
Give bare numbers.

Worked cases, logP given:
Molecule: COC(=O)[C@H]1[C@@H](OC(=O)c2ccccc2)C[C@@H]2CC[C@H]1N2C
logP: 1.82
--
Molecule: O=C1C(c2ccccc2)N2CCCCCN1C2=O (configuration not stated)
logP: 2.51
--
Molecule: CCCN(CC)C(CC)C(=O)Nc1c(C)cccc1C (configuration not stated)
logP: 3.87

Please look at the items below and tell me logP for each one, in order.
1. CCCCCC1(c2ccccc2)NC(=O)N(C)C1=O (configuration not stated)
2. CCOC(=O)c1ccc(N)cc1
3. CCCOc1ccc(C(=O)OCCN(CC)CC)cc1N
4. CC(CNC1CCCCC1)OC(=O)c1ccccc1 (configuration not stated)

Completion:
2.96
1.39
2.42
3.34
